Read-out: Cytochrome P450 (CYP1A1), CYP1A1 (gene 1543)
Test Method Notes: LTEA_HepaRG_CYP1A1: Life Technologies and Expression Analysis (LTEA) Assay for Cytochrome P450 (CYP1A1) using HepaRG (AID 2283454)
Experimental Parameters: mRNA level, 48 h; actives raise or lower the signal
Activity calls are given as the source filed them. The calls were made as follows: active = hit-call score of the fitted dose curve at least 0.9, where 1 is the maximum; inactive = score below 0.9.
Possible outcomes: label 1 for active, label 0 for inactive

| Molecule | Assigned Label |
| --- | --- |
| N#CN=C1SCCN1Cc1ccc(Cl)nc1 | label 0 |
| COCC(C)N(C(=O)CCl)c1c(C)csc1C (stereo not given) | label 1 |
| Cn1c(-c2ccccc2)cc(-c2ccccc2)[n+]1C | label 1 |
| CN=C=S | label 0 |
| CC(C)Oc1cccc(NC(=O)c2ccccc2C(F)(F)F)c1 | label 1 |
| CN/C(=N\[N+](=O)[O-])NCc1cnc(Cl)s1 | label 0 |
| CSC(=O)c1c(C(F)F)nc(C(F)(F)F)c(C(=O)SC)c1CC(C)C | label 1 |
| CCOc1nc(F)cc2nc(S(=O)(=O)Nc3c(Cl)cccc3Cl)nn12 | label 0 |
| CC(C)N1C(=O)c2ccccc2NS1(=O)=O | label 0 |
| CC(C)Nc1nc(Cl)nc(NC(C)C)n1 | label 1 |
| CCCC(=NOCC)C1=C(O)CC(CC(C)SCC)CC1=O (stereo not given) | label 1 |
| CS(=O)(=O)c1cc(C(F)(F)F)ccc1C(=O)c1cnoc1C1CC1 | label 1 |
| COC(=O)NS(=O)(=O)c1ccc(N)cc1 | label 0 |
| CCCCC(C#N)(Cn1cncn1)c1ccc(Cl)cc1 (stereo not given) | label 1 |
| C=C(C)CN(CC)c1c([N+](=O)[O-])cc(C(F)(F)F)cc1[N+](=O)[O-] | label 1 |
| CCOC(=O)C(C)OC(=O)c1cc(Oc2ccc(C(F)(F)F)cc2Cl)ccc1[N+](=O)[O-] (stereo not given) | label 1 |
| O=C(O)c1c(Cl)ccc2cc(Cl)cnc12 | label 0 |
| C=CCOC(=O)C(C)(C)OC(=O)c1cc(-n2c(=O)cc(C(F)(F)F)n(C)c2=O)ccc1Cl | label 0 |
| COCc1cnc(C2=NC(C)(C(C)C)C(=O)N2)c(C(=O)O)c1 (stereo not given) | label 1 |
| CCOc1cc(C(C)(C)C)ccc1C1COC(c2c(F)cccc2F)=N1 (stereo not given) | label 1 |
| O=C(Nc1ccccc1-c1ccc(Cl)cc1)c1cccnc1Cl | label 1 |
| Cc1ccc(N=CN(C)C=Nc2ccc(C)cc2C)c(C)c1 | label 1 |
| Cc1cnc(C2=NC(C)(C(C)C)C(=O)N2)c(C(=O)O)c1 (stereo not given) | label 1 |
| CC(C)N1C(=O)N(c2ccccc2)CSC1=NC(C)(C)C | label 0 |
| COP(=S)(OC)SCn1nnc2ccccc2c1=O | label 1 |
| CCNC(=O)NC(=O)C(C#N)=NOC | label 1 |
| CCN(CC)c1nc(C)cc(OP(=S)(OC)OC)n1 | label 1 |
| Cc1c(COC(=O)[C@@H]2[C@H](/C=C(\Cl)C(F)(F)F)C2(C)C)cccc1-c1ccccc1 | label 1 |
| COCC(=O)N(c1c(C)cccc1C)C(C)C(=O)OC (stereo not given) | label 0 |
| CS(=O)(=O)c1ccc(C(=O)C2C(=O)CCCC2=O)c([N+](=O)[O-])c1 | label 1 |
| COc1cc(OC)nc(NC(=O)NS(=O)(=O)c2ncccc2OCC(F)(F)F)n1 | label 1 |
| Cc1cc(C)nc(Nc2ccccc2)n1 | label 1 |
| CNC(=O)N(C)c1nnc(C(C)(C)C)s1 | label 1 |
| Nc1c(Cl)c(F)nc(OCC(=O)O)c1Cl | label 0 |
| OC(c1ccc(Cl)cc1)(c1ccc(Cl)cc1)C(Cl)(Cl)Cl | label 1 |

All figures here come from PubChem BioAssay (EPA / NIEHS).
